Reference for the values: the supplement of paper PMC10567573

B1: PLAGL1 (parent)
chain: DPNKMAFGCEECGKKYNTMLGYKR

- Variants of: B1
- Measurement Description: protein stability index of a GFP-peptide fusion (GPS, HEK-293T) (PSI 1-6); higher = more stable;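 further: lentivirally expressed fusions sorted by FACS into six bins by GFP to DsRed ratio, PSI derived from sequencing read proportions per bin multiplied by bin number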
- Condition Parameters: c terminus: a fixed tail appended
Readings of protein stability index for the listed variants
Format: numeric value only, no unit, no commentary.

Illustrative cases are given below, each with its answer.
# Variant Name, Readout Number
records = [
    ("Y22S", 3.47),
    ("G13P", 3.96),
    ("G8D", 2.73),
    ("Y16L", 3.25),
    ("P2V", 2),
    ("Y22I", 2.8),
    ("E10K", 2.6),
    ("K23P", 2.31),
    ("Y16H", 2.73),
    ("E11Y", 1.92),
]

### Prompt Return reported protein stability index. Input variant: C9E
### Response 3.52

### Prompt Return reported protein stability index. Input variant: T18L
### Response 1.85
